# Test system: Oryza sativa
# Method: Effect on Oryza sativa (rice) assessed as growth rate at 1 uM relative to control
# Type: organism-based
# Settings: in vivo
Measured Parameter: Activity (%)
One number for each entry, in %.

C[C@@H](NC(=O)Nc1ccc(Br)cc1)c1ccccc1: 95

State recorded Activity for all listed molecules.
1. COc1ccc(NC(=O)N[C@H](C)c2ccccc2)cc1
2. CC(=O)c1ccccc1NC(=O)N[C@@H](C)c1ccccc1
3. CC(=O)c1cccc(NC(=O)N[C@@H](C)c2ccccc2)c1
4. C[C@H](NC(=O)Nc1ccc(C(C)(C)C)cc1)c1ccccc1
5. CCOC(=O)c1cccc(NC(=O)N[C@H](C)c2ccccc2)c1

Result:
1: 101; 2: 97; 3: 95; 4: 88; 5: 94
